System: MT2
Assay: Cytotoxicity against human MT2 cells assessed as reduction in cell viability incubated for 4 days by XTT assay
Type: cell-based
Settings: mt2, 96 h, time 4 day
So basically, if CC50 comes in under 30 µM it's Yes, and if it's 30 µM or more it's No.

cpd smiles	measurement target	assigned category
NC[C@H](NC(=O)c1ccc(-c2ccc(C(F)(F)F)cc2)[nH]1)c1ncc(CO)s1	MT2	No

Task: Determine if CNC[C@H](NC(=O)c1ccc(-c2ccc(C(F)(F)F)cc2)[nH]1)c1nc(CO)cs1 shows CC50 strictly lower than 30 µM.
Result: Yes

Task: Another molecule: Cc1c(F)cc(-c2ccc(C(=O)N[C@H](CN)c3nc(CO)cs3)[nH]2)cc1F
Result: Yes

Task: Another molecule: NC[C@@H](NC(=O)c1ccc(-c2ccc(C(F)(F)F)c(F)c2)[nH]1)c1nc(CO)cs1
Result: Yes

Task: Another molecule: NC[C@@H](NC(=O)c1ccc(-c2ccc(C(F)(F)F)c(F)c2)[nH]1)c1ncc(CO)s1
Result: Yes

###

Tested on: TZM
Assay: Cytotoxicity against human TZM-bl cells assessed as reduction in cell viability incubated for 3 days by XTT assay
Assay type: cell-based
Settings: tzm, 72 h, time 3 day
So basically, if CC50 comes in under 20 µM it's condition met, and if it's 20 µM or more it's condition not met.

cpd smiles	measurement target	assigned category
NC[C@H](NC(=O)c1ccc(-c2ccc(C(F)(F)F)c(F)c2)[nH]1)c1nc(CO)c(CO)s1	TZM	condition not met
Cc1c(F)cc(-c2ccc(C(=O)N[C@@H](CN)c3nc(CO)cs3)[nH]2)cc1F	TZM	condition met
CNC[C@H](NC(=O)c1ccc(-c2cc(F)c(Cl)c(F)c2)[nH]1)c1nc(CO)cs1	TZM	condition met
Cc1c(F)cc(-c2ccc(C(=O)N[C@H](CN)c3ncc(CO)s3)[nH]2)cc1F	TZM	condition not met
NC[C@H](NC(=O)c1ccc(-c2ccc(C(F)(F)F)cc2)[nH]1)c1nc(CO)cs1	TZM	condition not met

Task: Determine if Cc1c(F)cc(-c2ccc(C(=O)N[C@H](CN)c3nc(CO)cs3)[nH]2)cc1F shows CC50 strictly lower than 20 µM.
Result: condition not met

Task: Another compound: NC[C@H](NC(=O)c1ccc(-c2cc(F)c(Cl)c(F)c2)[nH]1)c1nc(CO)c(CO)s1
Result: condition not met

Task: Another compound: NC[C@H](NC(=O)c1ccc(-c2ccc(C(F)(F)F)c(F)c2)[nH]1)c1ncc(CO)s1
Result: condition not met

Task: Another compound: CC(C)(O)c1csc([C@@H](CN)NC(=O)c2ccc(-c3cc(F)c(Cl)c(F)c3)[nH]2)n1
Result: condition not met
